Here, each record is paired with measured pIC50 data.
test system: Hepatitis B virus; test: Antiviral activity against HBV assessed as inhibition of viral DNA replication by Southern blot; format: functional, organism-based
Just so you know, pIC50 here is -log10 of the concentration in molar units; reply with that number alone.

Item CCOC(=O)c1cc2c(Cn3ccnc3)c(O)c(OC)cc2nc1C[S+]([O-])c1ccc(F)cc1 (centres undefined) has what recorded pIC50?
5.33

Item CCOC(=O)c1cc2c(Cn3ccnc3)c(O)c(OC)cc2nc1C[S+]([O-])c1ccc(F)c(F)c1 (centres undefined) has what recorded pIC50?
4.90

Item CCOC(=O)c1cc2c(CN3CCCCC3)c(O)c(OC)cc2nc1CSc1ccccc1 has what recorded pIC50?
4.34

Item CCOC(=O)c1cc2c(CN3CCCC3)c(O)c(OC)cc2nc1C[S+]([O-])c1ccc(F)c(F)c1 (centres undefined) has what recorded pIC50?
5.28

* * *

Here, each record is paired with measured pIC50 data.
system: Hepatitis B virus; test: Antiviral activity against HBV assessed as inhibition of viral DNA replication by Southern blot; type: functional, organism-based
Just so you know, pIC50 here is -log10 of the concentration in molar units; reply with that number alone.

Here is how some compounds turned out for pIC50.
CCOC(=O)c1cc2c(Cn3ccnc3)c(O)c(OC)cc2nc1CSc1ccc(F)c(F)c1 :: 5.03
CCOC(=O)c1cc2c(CN(C)C)c(O)c(OC)cc2nc1CSc1ccc(F)cc1 :: 4.48
CCOC(=O)c1cc2c(CN3CCCC3)c(O)c(OC)cc2nc1CSc1ccc(F)cc1 :: 4.99
Nc1ccn([C@@H]2CS[C@H](CO)O2)c(=O)n1 [LAMIVUDINE] :: 3.51

Item CCOC(=O)c1cc2c(Cn3ccnc3)c(O)c(OC)cc2nc1CSc1ccc(F)cc1 has what recorded pIC50?
4.38

Item CCOC(=O)c1cc2c(Cn3ccnc3C)c(O)c(OC)cc2nc1CSc1ccc(F)cc1 has what recorded pIC50?
4.51

Item CCOC(=O)c1cc2c(CN(C)C)c(O)c(OC)cc2nc1C[S+]([O-])c1ccc(F)cc1 (centres undefined) has what recorded pIC50?
4.66

Item CCOC(=O)c1cc2c(CN3CCCC3)c(O)c(OC)cc2nc1C[S+]([O-])c1ccc(F)cc1 (centres undefined) has what recorded pIC50?
4.97

Item CCOC(=O)c1cc2c(CN3CCCCC3)c(O)c(OC)cc2nc1CSc1ccc(F)c(F)c1 has what recorded pIC50?
4.62

* * *

Here, each record is paired with measured Ratio data.
assay: Selectivity index, ratio of TC50 for human HepG2.2.15 cells to IC50 for HBV e-antigen production
# respond with the number and nothing more

Here is how some compounds turned out for Ratio.
CCOC(=O)c1cc2c(Cn3ccnc3C)c(O)c(OC)cc2nc1CSc1ccc(F)cc1 :: 4.8
CCOC(=O)c1cc2c(Cn3ccnc3)c(O)c(OC)cc2nc1CSc1ccc(F)c(F)c1 :: 8.1
CCOC(=O)c1cc2c(Cn3ccnc3)c(O)c(OC)cc2nc1CSc1cccc(OC)c1 :: 2.9
CCOC(=O)c1cc2c(CN3CCCC3)c(O)c(OC)cc2nc1C[S+]([O-])c1ccc(F)cc1 (stereo not drawn) :: 7.9
CCOC(=O)c1cc2c(CN3CCCC3)c(O)c(OC)cc2nc1CSc1ccc(F)cc1 :: 5.1
CCOC(=O)c1cc2c(Cn3ccnc3)c(O)c(OC)cc2nc1C[S+]([O-])c1ccc(F)cc1 (stereo not drawn) :: 1.6
CCOC(=O)c1cc2c(CN3CCOCC3)c(O)c(OC)cc2nc1CSc1ccc(F)c(F)c1 :: 7.3

Next up:
Item CCOC(=O)c1cc2c(CN(C)C)c(O)c(OC)cc2nc1CSc1ccccc1OC has what recorded Ratio?
2.9
